Assay: Plasma and CSF pharmacokinetic study, single sublingual, oral or subcutaneous dose, male Beagle dogs
Format: in vivo
Details: male, beagle, dog, plasma, sc, 1 mg/kg, plasma; single SC 1 mg/kg; individual animal; read-out: AUCinf
READOUT KIND: AUC(0-inf) (ng·h/mL)

mol=CN1CCc2cccc3c2[C@@H]1Cc1ccc(O)c(O)c1-3 meas_value=115

====

Test: in vivo
Details: male, C57BL/6J, mouse, po, 25 mg/kg, CSF concentration, Mean
READOUT KIND: concentration at 4 h (ng/mL)

mol=CN1CCc2cccc3c2[C@@H]1Cc1ccc(O)c(O)c1-3 unit_tag=ng/mL meas_value=3.42

Attribution: patent US20230141988A1
